- Target system: one or more of HDAC-1, HDAC-2, HDAC-3, HDAC-4, HDAC-5, HDAC-6, HDAC-7, HDAC-8, HDAC-9, HDAC-10 and HDAC-11
- Test details: Inhibition of Histone Deacetylase Enzymatic Activity (Boc-Lys(Ac)-AMC substrate, Fluor-de-Lys developer)
- Format: biochemical
- Experimental parameters: Table 9; read-out: HDAC Inhibition (IC50 μM) HDAC Enzyme
// reported IC50 for each item listed
Measure name: IC50

1. O=C(NO)c1ccc(N2C[C@@H]3C[C@H]2CN3c2cccc(C(F)(F)F)c2)cc1	0.1 to 1 µM
2. COc1cccc(N2CC3CC2CN3c2ccc(C(=O)NO)cc2)c1 (centres unmarked)	0.1 to 1 µM
3. CC(C)(C)OC(=O)N1C[C@@H]2C[C@H]1CN2c1ncc(C(=O)NO)cn1	< 0.05 µM
4. Cc1cccc(N2C[C@H]3C[C@@H]2CN3c2ncc(C(=O)NO)cn2)c1	0.05 to 0.1 µM
5. O=C(NO)c1cnc(N2C[C@@H]3C[C@H]2CN3c2ccc3nsnc3c2)nc1	< 0.05 µM
6. O=C(NO)c1cnc(N2C[C@@H]3C[C@H]2CN3c2cncc(C(F)(F)F)c2)nc1	< 0.05 µM
7. O=C(NO)c1cnc(N2C[C@@H]3C[C@H]2CN3C(=O)N2CCCC2)nc1	0.05 to 0.1 µM
8. O=C(NO)c1cnc(N2C[C@@H]3C[C@H]2CN3c2ccc3c(c2)OCO3)nc1	< 0.05 µM
9. O=C(NO)c1cnc(N2C[C@@H]3C[C@H]2CN3C(=O)c2cccc(C(F)(F)F)c2)nc1	0.05 to 0.1 µM
10. O=C(NO)c1cnc(N2C[C@@H]3C[C@H]2CN3c2cccc(C(F)(F)F)c2)nc1	< 0.05 µM
11. O=C(NO)c1cnc(N2C[C@@H]3C[C@H]2CN3Cc2ccccc2)nc1	0.1 to 1 µM
12. O=C(NO)c1cnc(N2C[C@@H]3C[C@H]2CN3c2ccc3c(c2)OC(F)(F)O3)nc1	< 0.05 µM
13. O=C(NO)c1cnc(N2C[C@@H]3C[C@H]2CN3c2cc(C(F)(F)F)ccn2)nc1	< 0.05 µM
14. O=C(NO)c1cnc(N2C[C@@H]3C[C@H]2CN3c2cccc(C(F)(F)F)c2)s1	< 0.05 µM
15. N#Cc1cccc(N2CC3CC2CN3c2ncc(C(=O)NO)cn2)c1 (centres unmarked)	< 0.05 µM
16. CN(C)C(=O)c1cccc(N2C[C@@H]3C[C@H]2CN3c2ncc(C(=O)NO)cn2)c1	< 0.05 µM
17. O=C(NO)c1cnc(N2C[C@@H]3C[C@H]2CN3c2cccc3nonc23)nc1	< 0.05 µM
18. Cc1ccc(N2C[C@H]3C[C@@H]2CN3c2ncc(C(=O)NO)cn2)cc1	< 0.05 µM
19. O=C(NO)c1cnc(N2C[C@@H]3C[C@H]2CN3c2ccc3nonc3c2)nc1	< 0.05 µM
20. O=C(NO)c1cnc(N2C[C@@H]3C[C@H]2CN3c2cccc(S(F)(F)(F)(F)F)c2)nc1	< 0.05 µM

====

compounds and their reported IC50
- Target system: one or more of HDAC-1, HDAC-2, HDAC-3, HDAC-4, HDAC-5, HDAC-6, HDAC-7, HDAC-8, HDAC-9, HDAC-10 and HDAC-11
- Test details: Inhibition of Histone Deacetylase Enzymatic Activity (Boc-Lys(Ac)-AMC substrate, Fluor-de-Lys developer)
- Type: biochemical
- Experimental parameters: Table 9; read-out: HDAC Inhibition (IC50 μM) HDAC Enzyme
Measure name: IC50

1. O=C(NO)c1cnc(N2C[C@@H]3C[C@H]2CN3c2ccc(Cl)cc2)nc1	< 0.05 µM
2. O=C(NO)c1cnc(N2C[C@@H]3C[C@H]2CN3c2cccc(C(F)(F)F)c2)cn1	0.1 to 1 µM
3. O=C(NO)c1cnc(N2C[C@@H]3C[C@H]2CN3c2ccccc2C(F)(F)F)nc1	0.1 to 1 µM
4. Cc1cccc(N2C[C@@H]3C[C@H]2CN3c2ncc(C(=O)NO)cn2)c1	< 0.05 µM
